Origin of measurements: ChEMBL document CHEMBL3576836

# Tested On: UniProtKB Q96EB6
# Sequence (Q96EB6 whole entry): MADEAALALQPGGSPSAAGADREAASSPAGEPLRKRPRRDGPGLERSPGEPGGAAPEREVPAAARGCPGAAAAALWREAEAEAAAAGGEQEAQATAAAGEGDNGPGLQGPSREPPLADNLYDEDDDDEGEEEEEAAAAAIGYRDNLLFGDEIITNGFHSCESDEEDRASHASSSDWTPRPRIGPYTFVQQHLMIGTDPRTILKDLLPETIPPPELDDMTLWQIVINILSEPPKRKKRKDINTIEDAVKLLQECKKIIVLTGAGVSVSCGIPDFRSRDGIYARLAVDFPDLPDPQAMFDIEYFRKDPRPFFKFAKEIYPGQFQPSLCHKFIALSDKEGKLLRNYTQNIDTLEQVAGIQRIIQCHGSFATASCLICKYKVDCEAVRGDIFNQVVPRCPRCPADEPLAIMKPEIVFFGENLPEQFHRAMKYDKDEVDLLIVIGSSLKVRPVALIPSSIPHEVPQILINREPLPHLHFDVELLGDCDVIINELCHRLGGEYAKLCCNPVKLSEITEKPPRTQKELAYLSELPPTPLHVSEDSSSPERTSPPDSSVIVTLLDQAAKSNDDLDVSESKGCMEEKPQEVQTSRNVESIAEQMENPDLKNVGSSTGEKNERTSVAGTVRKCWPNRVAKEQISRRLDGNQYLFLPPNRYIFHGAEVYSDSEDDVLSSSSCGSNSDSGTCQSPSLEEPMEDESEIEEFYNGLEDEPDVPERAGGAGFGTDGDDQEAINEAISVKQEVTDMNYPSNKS
# Test: Increase in SIRT1 (unknown origin) deacetylation activity at 10 uM
Active and inactive are the calls of the source. No cut-off for these calls is given here.
Labels: active, inactive

Molecule	Answer Label
C=C(C)[C@@H]1Cc2cc3c(cc2O1)O[C@H](c1ccc(O)cc1)CC3=O	inactive
C=C[C@@](C)(/C=C/c1ccc(O)cc1)CC[C@@H](O)C(C)(C)O	inactive
C=C(C)[C@@H]1Cc2cc3c(cc2O1)oc1c2ccc(O)cc2oc(=O)c31	inactive
C=C[C@@](C)(/C=C/c1ccc(O)cc1)CCC1OC1(C)C (some centres not stated)	inactive
CC(C)(O)c1cc2c3c(ccc2o1)C(=O)C[C@@H](c1ccc(O)cc1)O3	active
CC(C)(O)[C@H]1Oc2cc3oc4c5ccc(O)cc5oc(=O)c4c3cc2[C@@H]1O	inactive
CC1(C)Oc2ccc(-c3coc4cc(O)ccc4c3=O)cc2[C@H](O)[C@@H]1O	inactive
CC1(C)Oc2ccc(-c3coc4cc(O)ccc4c3=O)cc2[C@@H](O)[C@@H]1O	inactive
CC(C)(O)[C@H]1Cc2c(ccc3c2O/C(=C\c2ccc(O)c(O)c2)C3=O)O1	active
O=c1ccc2cc3ccoc3cc2o1 [PSORALEN]	inactive
Oc1ccc(O)cc1 [HYDROQUINONE]	inactive
O=c1ccc2ccc3occc3c2o1 [ANGELICIN]	inactive
CC(C)(O)[C@@H]1Cc2cc3c(cc2O1)O[C@H](c1ccc(O)cc1)CC3=O	inactive
CC(C)(O)[C@@H]1Oc2ccc(-c3coc4cc(O)ccc4c3=O)cc2[C@H]1O	active
C=C(C)[C@H]1Cc2c(ccc3c2O/C(=C\c2ccc(O)c(O)c2)C3=O)O1	inactive
O=Cc1ccc(O)c(O)c1 [PROTOCATECHUALDEHYDE]	inactive
O=Cc1ccc(O)cc1 [4-HYDROXYBENZALDEHYDE]	inactive
CC(C)=CCc1cc(-c2coc3cc(O)ccc3c2=O)ccc1O [NEOBAVAISOFLAVONE]	inactive
CC1(C)Oc2ccc(-c3coc4cc(O)ccc4c3=O)cc2C[C@@H]1O	inactive
C=C[C@@](C)(/C=C/c1ccc(O)cc1)CCC(=O)C(=C)C	inactive
C=C[C@@](C)(/C=C/c1ccc(O)cc1)C/C=C/C(C)(C)O	inactive
CC(C)(O)[C@@H]1Cc2cc3c(cc2O1)oc1c2ccc(O)cc2oc(=O)c31	inactive
